Test system: HeLa
Test: Cytotoxicity against human HeLa cells assessed as cell growth at 10^-6 M after 48 hrs by SRB assay relative to control
Type: functional
Conditions: read-out: Activity
readout: growth at 1 µM (%)

> print(dat)
                            smiles.notation  value
1  CCOc1ccc2sc(S(C)(=O)=O)nc2c1S(=O)(=O)Nc1ccc([N+](=O)[O-])cc1   46.2
2  CCOc1ccc2sc(S(C)(=O)=O)nc2c1S(=O)(=O)Nc1ccc(Br)cc1   73.7
3  CCOc1ccc2sc(S(C)(=O)=O)nc2c1S(=O)(=O)NC(C)(C)C   42.1
4   CS(=O)(=O)c1nc2cc(OCc3ccc(Cl)cc3)ccc2s1   89.9
